// data source = patent US20250066422A1

SUBJECT_OF_TEST: T1, HLA-A*0201 (human)
T1 construct: MHC monomer first loaded with a UV-sensitive peptide that is cleaved and exchanged for the test peptide; captured on streptavidin; also called peptide-receptive MHC molecules
PROTOCOL_TEXT: UV-ligand exchange, streptavidin/anti-b2m sandwich ELISA
In this section we review reported Average exchange yield in % values for a set of binders.
State the answer as a number, implicitly in %.

Guide cases for Average exchange yield in %, answers given:
BINDER | Average exchange yield in % (%)
AIDGNNHEV (synthetic peptide from GFPT2) [GFPT2-001] | 43
SLIDADPYL (synthetic peptide from CCNA2) [CCNA2-001] | 54
GLIEIISNA (synthetic peptide from SNRNP200) [SNRNP20-001] | 54

Query binder follows.
Query: Supply recorded Average exchange yield in % for KLFGEKTYL (synthetic peptide from SERPINB3) [SERPINB3-001] here.
Response: 47
